# assay.system: ROCK1 (Homo sapiens (Human))
# Sequence (Q13464 whole entry, species assumed): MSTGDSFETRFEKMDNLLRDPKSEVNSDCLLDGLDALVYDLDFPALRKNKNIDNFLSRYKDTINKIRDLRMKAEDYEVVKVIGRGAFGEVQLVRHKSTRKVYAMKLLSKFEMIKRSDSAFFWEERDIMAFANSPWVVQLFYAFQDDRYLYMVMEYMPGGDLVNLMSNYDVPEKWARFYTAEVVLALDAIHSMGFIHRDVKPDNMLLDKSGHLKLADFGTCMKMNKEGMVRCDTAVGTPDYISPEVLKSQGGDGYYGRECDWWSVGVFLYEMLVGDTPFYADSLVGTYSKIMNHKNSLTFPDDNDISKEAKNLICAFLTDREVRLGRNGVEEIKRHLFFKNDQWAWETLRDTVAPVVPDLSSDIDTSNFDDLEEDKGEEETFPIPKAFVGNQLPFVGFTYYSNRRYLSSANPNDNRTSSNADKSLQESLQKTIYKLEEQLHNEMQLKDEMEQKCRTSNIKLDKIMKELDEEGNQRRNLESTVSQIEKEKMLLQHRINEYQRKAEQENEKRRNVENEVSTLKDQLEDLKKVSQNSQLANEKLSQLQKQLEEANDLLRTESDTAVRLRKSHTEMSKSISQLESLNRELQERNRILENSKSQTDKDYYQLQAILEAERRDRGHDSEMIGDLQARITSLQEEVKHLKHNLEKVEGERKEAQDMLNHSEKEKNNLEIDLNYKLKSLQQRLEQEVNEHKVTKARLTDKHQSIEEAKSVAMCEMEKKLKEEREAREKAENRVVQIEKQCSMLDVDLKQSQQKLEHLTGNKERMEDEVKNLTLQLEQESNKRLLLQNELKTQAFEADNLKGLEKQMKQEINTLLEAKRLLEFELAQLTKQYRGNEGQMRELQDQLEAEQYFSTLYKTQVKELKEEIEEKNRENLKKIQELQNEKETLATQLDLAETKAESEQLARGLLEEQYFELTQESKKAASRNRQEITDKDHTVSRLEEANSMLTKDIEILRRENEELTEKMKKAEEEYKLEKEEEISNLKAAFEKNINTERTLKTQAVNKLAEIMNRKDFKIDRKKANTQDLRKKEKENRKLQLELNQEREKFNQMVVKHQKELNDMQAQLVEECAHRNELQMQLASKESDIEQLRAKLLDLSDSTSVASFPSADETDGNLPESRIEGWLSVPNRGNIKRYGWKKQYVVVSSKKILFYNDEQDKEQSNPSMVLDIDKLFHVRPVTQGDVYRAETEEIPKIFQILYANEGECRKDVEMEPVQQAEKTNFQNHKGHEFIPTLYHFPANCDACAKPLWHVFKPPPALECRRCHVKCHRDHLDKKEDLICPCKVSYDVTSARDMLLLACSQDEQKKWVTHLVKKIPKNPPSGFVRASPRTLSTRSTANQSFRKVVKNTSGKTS
# assay.method.text: ROCK assay (LABCHIP peptide phosphorylation), ROCK1
# Type: biochemical
# condition.notes: 5 μM ATP, 1.5 μM peptide substrate; read-out: ROCK1 IC50
For each of the compounds below, state its IC50.

Illustrative cases are given below, each with its answer.
{"compound": "Cn1c(C(=O)Nc2ccc(-c3c[nH]c(=O)c4ccccc34)cc2)cc2ccccc21", "assay.system": "ROCK1 (Homo sapiens (Human))", "IC50": "101 to 1000 nM"}
{"compound": "Cc1c(C(=O)Nc2ccc(-c3n[nH]c(=O)c4ccccc34)cc2)cnn1-c1cccc(Cl)c1F", "assay.system": "ROCK1 (Homo sapiens (Human))", "IC50": "0.1 to 100 nM"}
{"compound": "O=C(Nc1ccc(-c2n[nH]c(=O)c3ccccc23)cc1)c1nn(CC2CCCCO2)c2ccccc12 (stereo not drawn)", "assay.system": "ROCK1 (Homo sapiens (Human))", "IC50": "0.1 to 100 nM"}
{"compound": "Cc1c(C(=O)Nc2ccc(-c3n[nH]c(=O)c4ccccc34)cc2)cnn1-c1ccccc1", "assay.system": "ROCK1 (Homo sapiens (Human))", "IC50": "0.1 to 100 nM"}
{"compound": "O=C(Nc1ccc(-c2n[nH]c(=O)c3ccccc23)cc1)c1noc2ccccc12", "assay.system": "ROCK1 (Homo sapiens (Human))", "IC50": "101 to 1000 nM"}

Q) What is its IC50 for ROCK1 (Homo sapiens (Human))? Entry: `COc1cccc2cc(C(=O)Nc3ccc(-c4n[nH]c(=O)c5ccccc45)cc3)[nH]c12`
A) 0.1 to 100 nM

* * *

# assay.system: ROCK2 (Homo sapiens (Human), UniProt O75116)
# Sequence (O75116 whole entry, species assumed): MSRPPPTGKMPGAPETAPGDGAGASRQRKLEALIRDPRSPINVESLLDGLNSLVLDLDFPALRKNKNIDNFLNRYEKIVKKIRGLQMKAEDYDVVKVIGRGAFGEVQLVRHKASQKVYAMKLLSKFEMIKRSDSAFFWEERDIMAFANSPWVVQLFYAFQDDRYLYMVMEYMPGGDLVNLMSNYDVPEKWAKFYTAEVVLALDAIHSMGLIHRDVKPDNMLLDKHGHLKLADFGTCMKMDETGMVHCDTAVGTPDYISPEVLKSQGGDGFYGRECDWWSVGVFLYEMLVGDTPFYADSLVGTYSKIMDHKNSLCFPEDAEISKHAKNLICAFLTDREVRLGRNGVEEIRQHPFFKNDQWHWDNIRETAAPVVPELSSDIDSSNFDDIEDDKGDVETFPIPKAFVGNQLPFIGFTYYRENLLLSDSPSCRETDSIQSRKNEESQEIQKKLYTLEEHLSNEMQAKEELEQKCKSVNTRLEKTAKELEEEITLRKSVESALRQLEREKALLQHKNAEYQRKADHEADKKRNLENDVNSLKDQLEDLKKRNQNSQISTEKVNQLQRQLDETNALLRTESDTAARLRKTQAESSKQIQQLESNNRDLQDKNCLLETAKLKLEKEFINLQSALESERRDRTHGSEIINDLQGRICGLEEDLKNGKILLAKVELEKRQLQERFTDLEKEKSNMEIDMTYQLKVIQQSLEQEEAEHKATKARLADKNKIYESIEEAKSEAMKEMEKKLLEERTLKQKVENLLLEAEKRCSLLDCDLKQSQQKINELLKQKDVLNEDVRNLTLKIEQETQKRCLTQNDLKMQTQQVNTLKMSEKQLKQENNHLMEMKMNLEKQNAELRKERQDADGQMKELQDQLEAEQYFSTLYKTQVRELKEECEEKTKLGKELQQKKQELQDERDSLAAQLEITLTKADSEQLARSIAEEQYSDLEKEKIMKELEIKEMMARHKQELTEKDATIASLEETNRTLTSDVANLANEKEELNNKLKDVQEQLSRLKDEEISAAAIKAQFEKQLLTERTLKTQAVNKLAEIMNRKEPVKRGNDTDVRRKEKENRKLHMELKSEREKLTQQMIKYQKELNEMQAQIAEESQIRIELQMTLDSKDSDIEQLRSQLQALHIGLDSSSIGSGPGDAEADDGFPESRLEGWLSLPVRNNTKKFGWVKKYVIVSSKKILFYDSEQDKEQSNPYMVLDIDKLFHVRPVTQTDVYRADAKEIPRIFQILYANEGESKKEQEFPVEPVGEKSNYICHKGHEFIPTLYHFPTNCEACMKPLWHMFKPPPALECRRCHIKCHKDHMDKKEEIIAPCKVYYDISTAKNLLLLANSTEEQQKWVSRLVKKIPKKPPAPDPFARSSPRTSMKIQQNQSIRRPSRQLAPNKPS
# assay.method.text: ROCK assay (LABCHIP peptide phosphorylation), ROCK2
# Format: biochemical
# condition.notes: 5 μM ATP, 1.5 μM peptide substrate
readout.label: IC50

{"compound": "Cc1nc2ccccn2c1C(=O)Nc1ccc(-c2n[nH]c(=O)c3ccccc23)cc1 [Example 95]", "IC50": "0.1 to 100 nM"}
{"compound": "O=C(Nc1ccc(-c2n[nH]c(=O)c3ccccc23)cc1)c1ccc(N2CCCCC2)cc1 [Example 61]", "IC50": "0.1 to 100 nM"}
{"compound": "O=C(Nc1ccc(-c2n[nH]c(=O)c3ccccc23)cc1)C1CC(=O)N(c2cccc(Cl)c2F)C1 (stereo not drawn) [Example 211]", "IC50": "101 to 1000 nM"}
{"compound": "Cc1cc(NC(=O)c2nn(CC3CCN(C(=O)OCc4ccccc4)CC3)c3ccccc23)ccc1-c1n[nH]c(=O)c2ccccc12 [Example 307]", "IC50": "0.1 to 100 nM"}
{"compound": "O=C(Nc1ccc(-c2n[nH]c(=O)c3ccccc23)c(CO)c1)c1nn(CC2CCCO2)c2ccccc12 (stereo not drawn) [Example 367]", "IC50": "0.1 to 100 nM"}

Required: IC50, one value per compound below.
1. CC(C)(O)COc1ccn2ncc(C(=O)Nc3ccc(-c4n[nH]c(=O)c5ccccc45)cc3)c2c1 [Example 181]
2. Cn1ncc(C(=O)Nc2ccc(-c3n[nH]c(=O)c4ccccc34)cc2)c1-c1ccccc1 [Example 192]
3. O=C(Cc1ccc(-c2n[nH]c(=O)c3ccccc23)cc1)N[C@H]1CCc2ccccc21 [Example 82]
4. CC(C)(O)Cn1nc(C(=O)Nc2ccc(-c3n[nH]c(=O)c4ccccc34)cc2O)c2ccccc21 [Example 353]
5. CC(C)(O)COc1ccc2c(c1)N(C(=O)Cc1ccc(-c3n[nH]c(=O)c4ccccc34)cc1)CC2 [Example 265]

A)
["0.1 to 100 nM", "0.1 to 100 nM", "101 to 1000 nM", "0.1 to 100 nM", "0.1 to 100 nM"]

* * *

# assay.system: ROCK1 (Homo sapiens (Human))
# assay.method.text: ROCK assay (LABCHIP peptide phosphorylation), ROCK1
# Assay type: biochemical
# condition.notes: 5 μM ATP, 1.5 μM peptide substrate; read-out: ROCK1 IC50
For each of the molecules below, state its IC50.

Illustrative cases are given below, each with its answer.
{"smiles.code": "O=C(Nc1ccc(-c2n[nH]c(=O)c3ccccc23)cc1)c1ccc(N2CCCC2)cc1", "assay.system": "ROCK1 (Homo sapiens (Human))", "IC50": "0.1 to 100 nM"}
{"smiles.code": "O=C(Cc1ccc(-c2n[nH]c(=O)c3ccccc23)cc1)Nc1noc2c1CCCC2", "assay.system": "ROCK1 (Homo sapiens (Human))", "IC50": "1000 to 50000 nM"}
{"smiles.code": "O=C(Nc1ccc(-c2n[nH]c(=O)c3ccccc23)cc1)c1cccc(N2CCCC2)c1", "assay.system": "ROCK1 (Homo sapiens (Human))", "IC50": "0.1 to 100 nM"}
{"smiles.code": "COc1cc(NC(=O)c2nn(CC(C)(C)O)c3ccccc23)ccc1-c1n[nH]c(=O)c2ccccc12", "assay.system": "ROCK1 (Homo sapiens (Human))", "IC50": "101 to 1000 nM"}
{"smiles.code": "O=C(COc1ccc2c(c1)N(C(=O)Cc1ccc(-c3n[nH]c(=O)c4ccccc34)cc1)CC2)N1CCOCC1", "assay.system": "ROCK1 (Homo sapiens (Human))", "IC50": "0.1 to 100 nM"}

Q) Suppose we examine the molecule `O=C(Nc1ccc(-c2n[nH]c(=O)c3ccccc23)cc1)c1cnn(C2CCOCC2)c1` ; what IC50 value has been reported?
A) 101 to 1000 nM

* * *

# assay.system: ROCK1 (Homo sapiens (Human))
# assay.method.text: ROCK assay (LABCHIP peptide phosphorylation), ROCK1
# Type: biochemical
# condition.notes: 5 μM ATP, 1.5 μM peptide substrate; read-out: ROCK1 IC50
pIC50: −log10 of the molar value.
readout.label: pIC50

{"smiles.code": "COC(=O)N1CCC(Cn2nc(C(=O)Nc3ccc(-c4n[nH]c(=O)c5ccccc45)cc3)c3ccccc32)CC1", "readout.label": "pIC50", "assay.result": "7.00 to 10.00"}

Required: pIC50, one value per molecule below.
1. CC(C)(O)Cn1cc(C(=O)Nc2ccc(-c3n[nH]c(=O)c4ccccc34)cc2)cn1
2. Cc1cc(NC(=O)c2cnc3ccccn23)ccc1-c1n[nH]c(=O)c2ccccc12

A)
1. 4.30 to 6.00
2. 6.00 to 7.00
